# ASSAY_SYSTEM: Inward rectifier potassium channel 2 (Mus musculus)
# PROTOCOL_DESCRIPTION: inhibition of mouse Kir2.1 inward rectifier channel – manual whole-cell patch clamp, extended SAR, set 1, orthogonal assay, SAR follow-up (AID 504828)
# TEST_CONDITIONS: Kir2.1-expressing cells, -100 mV
pIC50: −log10 of the molar value.
Decision: pIC50 compared against 5; not below it gives yes, below it gives no.

{"columns": ["COMPOUND", "GROUP"],
 "data": [
  ["Cc1noc(C)c1COC(=O)CCN1c2ccccc2Sc2ccccc21", "yes"],
  ["Cc1ccc2nc(NCc3ccccc3)[nH]c2c1", "no"],
  ["CC(O)CNCCCOc1cccc(Oc2ccccc2)c1 (stereo unspecified)", "yes"]
]}

Quick check: does Cc1ccc(C)c(OCCCNCc2ccccc2)c1 have pIC50 greater than or equal to 5?
yes
